- procedure text: JNT-517 plasma pharmacokinetics in healthy volunteers
- Assay type: in vivo, human
- reported conditions: human, plasma, oral; SAD 25 mg; min, max 0.5, 2.0; read-out: Median Tmax
- Experimental: The plasma pharmacokinetic profile of JNT-517 was measured using a qualified high-performance LC-MS assay. […] The resulting concentration-time data was evaluated using standard noncompartmental analysis methods, and PK parameters were calculated (Cmax, Tmax, T1/2, AUC0-inf, CL/F, Vd/F). IC50 values for transport inhibition in cells overexpressing SLC6A19 and TMEM27 were calculated using a 4-parameter logistic regression in Collaborative Drug Discovery (CDD). […]
quantity name: Tmax (h)
Answers are plain numbers, in h.

Noted for `NC(=O)N1CCC[C@@H](N(C(=O)NCc2ccc(OC(F)(F)F)cc2F)C2CC2)C1` : its Tmax reads 1

The measured values listed here are drawn from paper PMC11601558.
